protocol-notes: Stability of the compound in presence of light measured after 12 hrs
Assay type: physicochemical
condition-set: read-out: Stability
quantity-name: remaining at 12 h (%)
Give bare numbers, in %.

Some solved cases for reference:
item_smiles=O=C(O)CCn1c(=O)oc2cc(OC3CC3)c(Cl)cc21 quantity_name="remaining at 12 h" numeric_value=100
item_smiles=C[C@@H](Oc1cc2oc(=O)n(CCC(=O)O)c2cc1Cl)c1ccccn1 quantity_name="remaining at 12 h" numeric_value=99.2

Please state remaining at 12 h for every molecule in the list that follows.
1. Cc1ccc([C@@H](C)Oc2cc3onc(CCC(=O)O)c3cc2Cl)nn1
2. O=C(O)CCn1c(=O)oc2cc(Cl)c(Cl)cc21
3. C[C@@H](Oc1cc2onc(CCC(=O)O)c2cc1Cl)c1ccc(Cl)cn1
4. Cc1cc2oc(=O)n(CCC(=O)O)c2cc1Cl

Ans.
1: 85.2; 2: 41; 3: 99.5; 4: 100

Origin of values: ChEMBL document CHEMBL4049435
